Tested on: LOC_OS02G14120-cb001
EXPERIMENTAL DETAILS: thermal shift delta Tm vs DMSO control; higher = stronger stabilization (binding);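 further: purified Escherichia coli-expressed rice kinase domain construct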
APPLIED CONDITIONS: 12.5 µM; protein concentration 2 µM
QUANTITY NAME: thermal shift delta Tm (°C)
State just the number; it will be interpreted in °C.

COc1ccc(-c2nc(N3CCOCC3)c3sc(CN(C)c4ncc(C(=O)NO)cn4)cc3n2)cn1 | 0.54
Cn1cnc2c(F)c(Nc3ccc(Br)cc3F)c(C(=O)NOCCO)cc21 | -0.02
CCCS(=O)(=O)Nc1ccc(F)c(C(=O)c2c[nH]c3ncc(Cl)cc23)c1F | 1.51
COc1ccc(S(=O)(=O)N(CCO)c2ccccc2CN(C)C/C=C/c2ccc(Cl)cc2)cc1 [KN-93 Phosphate] | 0.97
COc1cc2c(cc1OC)[C@@H]1C(=O)c3ccc4c(c3O[C@@H]1CO2)C=CC(C)(C)O4 | 0.97
CC(C)n1nc(-c2ccc3oc(N)nc3c2)c2c(N)ncnc21 | 1.77
Cn1ncc(Cl)c1-c1cc(C(=O)N[C@H](CN)Cc2ccc(F)c(F)c2)oc1Cl | 0.41
CNC(=O)c1ccccc1Sc1ccc2c(/C=C/c3ccccn3)n[nH]c2c1 | 3.54

Please look at the following compound next.
Look up thermal shift delta Tm for this compound: COc1nccnc1NS(=O)(=O)c1ccc(NC(=O)/C=C/c2ccc([N+](=O)[O-])s2)cc1 [Necrosulfonamide]
-0.66

---

Test system: LOC_OS01G51400-cb002
EXPERIMENTAL DETAILS: thermal shift delta Tm vs DMSO control; higher = stronger stabilization (binding)
APPLIED CONDITIONS: 12.5 µM; protein concentration 2 µM
Please use class 1 whenever thermal shift delta Tm is not below 0.3 °C, and class 0 whenever it is.

O=C(NCCO)c1cccc(-c2cc(Nc3ccc(OC(F)(F)F)cc3)ncn2)c1 | class 0
O=C(NOCC(O)CO)c1cc(Br)c(F)c(F)c1Nc1ccc(I)cc1F (centres undefined) | class 1
COc1cc2ncnc(Oc3ccc(CC(=O)Nc4cnn(C(C)C)c4)cc3)c2cc1OC | class 0

Consider the additional compound presented here.
State whether the measured thermal shift delta Tm reaches 0.3 °C, counting equality as reaching it, for `Nc1ccc(C(=O)Nc2cccc(-c3nc(N4CCOCC4)c4oc5ncccc5c4n3)c2)cn1`
class 0

---

Test system: LOC_OS05G43570-cb004
EXPERIMENTAL DETAILS: thermal shift delta Tm vs DMSO control; higher = stronger stabilization (binding)
APPLIED CONDITIONS: 12.5 µM; protein concentration 2 µM
# key: entry, value: thermal shift delta Tm
State just the number; it will be interpreted in °C.

Illustrative cases are given below, each with its answer.
COc1cc(F)c(F)c(Nc2ccc(I)cc2F)c1NS(=O)(=O)C1(C[C@H](O)CO)CC1 [Refametinib (RDEA119, Bay 86-9766)] | 0.4
O=c1ncn2nc(Sc3ccc(F)cc3F)ccc2c1-c1c(Cl)cccc1Cl | 0.49
COC(=O)c1ccc2c(c1)NC(=O)/C2=C(\Nc1ccc(N(C)C(=O)CN2CCN(C)CC2)cc1)c1ccccc1 [Nintedanib (BIBF 1120)] | 0.43
O=S(=O)(c1cccc2c(I)cccc12)N1CCCNCC1 | 0.32
Cc1c(C(=O)N2CCOc3ccc(-c4ccc(N)nc4)cc3C2)ccc(S(C)(=O)=O)c1F | 0.13

Look up thermal shift delta Tm for this compound: Cc1cc(Nc2ncnc3ccc(NC4=NC(C)(C)CO4)cc23)ccc1Oc1ccn2ncnc2c1 [Irbinitinib (ARRY-380, ONT-380)]
0.33

Look up thermal shift delta Tm for this compound: COC(=O)[C@]12CCC(C)(C)C[C@H]1[C@H]1C(=O)C=C3[C@@]4(C)C=C(C#N)C(=O)C(C)(C)[C@@H]4CC[C@@]3(C)[C@]1(C)CC2 [Bardoxolone Methyl]
-2.54

Look up thermal shift delta Tm for this compound: `CCOc1ccn(-c2ccc(F)cc2)c(=O)c1C(=O)Nc1ccc(Oc2ccnc(N)c2Cl)c(F)c1`
1.2

Look up thermal shift delta Tm for this compound: `COc1cc2nccc(Oc3ccc(NC(=O)C4(C(=O)Nc5ccc(F)cc5)CC4)cc3)c2cc1OC`
0.51

Look up thermal shift delta Tm for this compound: `CC1(C)OCCn2c1nc1c(N3CCOCC3)nc(-c3cnc(N)nc3)nc12`
0.76

Look up thermal shift delta Tm for this compound: `Oc1c2ccccc2c2c3c(cccc13)N=N2`
1

Look up thermal shift delta Tm for this compound: CCN(CC)CCNC(=O)c1c(C)[nH]c(/C=C2\C(=O)Nc3ccc(-c4csc(-c5ccccc5)n4)cc32)c1C [Amcasertib (BBI503)]
0
